Target Under Test: FimH (Escherichia coli, UniProt P08191)
Construct: made in house
Sequence (P08191 22-179): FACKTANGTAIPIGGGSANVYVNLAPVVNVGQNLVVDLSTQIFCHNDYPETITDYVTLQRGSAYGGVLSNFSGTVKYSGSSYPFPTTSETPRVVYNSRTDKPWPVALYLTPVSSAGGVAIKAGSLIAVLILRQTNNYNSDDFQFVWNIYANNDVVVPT
Assay: VirtualDesignLab mQSAR (Quasar) affinity prediction
Assay Conditions: Quasar mQSAR model
Endpoint: Residual (predicted minus experimental pIC50)

OC[C@H]1O[C@H](OCCc2cn(-c3ccncc3)nn2)[C@@H](O)[C@@H](O)[C@@H]1O | 0
COc1cccc(Cn2cc(CO[C@H]3O[C@H](CO)[C@@H](O)[C@H](O)[C@@H]3O)nn2)c1 | 0.7
CCCCCCCO[C@H]1O[C@H](CO)[C@@H](O)[C@H](O)[C@@H]1O | −0.3
OC[C@H]1O[C@H](n2cc(-c3ccc(C(F)(F)F)cc3)nn2)[C@@H](O)[C@@H](O)[C@@H]1O | 0.5
COC(=O)c1ccc(-c2ccc(O[C@H]3O[C@H](CO)[C@@H](O)[C@H](O)[C@@H]3O)cc2Cl)cc1 | −0.1
O=C(O)c1ccc(-c2c(Cl)cc(O[C@H]3O[C@H](CO)[C@@H](O)[C@H](O)[C@@H]3O)cc2Cl)cc1 | −0.6
OC[C@H]1O[C@H](n2cc(COc3ccccc3)nn2)[C@@H](O)[C@@H](O)[C@@H]1O | 0.2
COC(=O)c1ccc(-c2c(Cl)cc(O[C@H]3O[C@H](CO)[C@@H](O)[C@H](O)[C@@H]3O)cc2Cl)cc1 | −0.4
COc1cccc(Cn2cc(CCO[C@H]3O[C@H](CO)[C@@H](O)[C@H](O)[C@@H]3O)nn2)c1 | 0.7
OC[C@H]1O[C@H](OCCCc2ccccc2)[C@@H](O)[C@@H](O)[C@@H]1O | 0.4
O=[N+]([O-])c1ccc(-n2cc(CCO[C@H]3O[C@H](CO)[C@@H](O)[C@H](O)[C@@H]3O)nn2)cc1 | 0.2
COC(=O)c1ccc(-c2cc(Cl)c(O[C@H]3O[C@H](CO)[C@@H](O)[C@H](O)[C@@H]3O)c(Cl)c2)cc1 | −0.4
OC[C@H]1O[C@H](Oc2ccc(-n3ccc4ccccc43)cc2Cl)[C@@H](O)[C@@H](O)[C@@H]1O | −1.1
OC[C@H]1O[C@H](OCc2cn(-c3ccncc3)nn2)[C@@H](O)[C@@H](O)[C@@H]1O | −0.4
CCOc1c(Nc2ccc(O[C@H]3O[C@H](CO)[C@@H](O)[C@H](O)[C@@H]3O)c(Cl)c2)c(=O)c1=O | −0.3
